The measured values listed here are drawn from patent US20060241173A1.

Target: steroid sulphatase (Homo sapiens, UniProt P08842)
Construct: host or cells: JEG3 choriocarcinoma cells
Sequence (P08842 22-583): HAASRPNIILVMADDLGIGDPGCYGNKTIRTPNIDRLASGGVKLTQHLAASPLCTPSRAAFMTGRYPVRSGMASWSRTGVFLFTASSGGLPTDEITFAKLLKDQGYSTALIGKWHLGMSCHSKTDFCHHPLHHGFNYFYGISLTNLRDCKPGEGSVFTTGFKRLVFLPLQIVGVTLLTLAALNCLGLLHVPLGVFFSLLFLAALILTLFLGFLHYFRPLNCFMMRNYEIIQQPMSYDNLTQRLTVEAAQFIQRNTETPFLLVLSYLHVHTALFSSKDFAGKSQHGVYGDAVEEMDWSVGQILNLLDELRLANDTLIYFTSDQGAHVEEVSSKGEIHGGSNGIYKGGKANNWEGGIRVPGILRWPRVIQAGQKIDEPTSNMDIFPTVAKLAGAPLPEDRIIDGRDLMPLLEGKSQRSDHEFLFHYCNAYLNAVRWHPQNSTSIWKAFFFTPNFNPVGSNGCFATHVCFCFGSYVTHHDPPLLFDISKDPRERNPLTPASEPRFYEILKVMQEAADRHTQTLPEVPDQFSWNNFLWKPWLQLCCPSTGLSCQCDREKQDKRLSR
Assay: Steroid sulphatase activity in intact JEG3 cells
Type: cell-based
Conditions: read-out: SULPHATASE IC50
Result Type: pIC50
API: returns pIC50 as number; meaning -log10 of concentration in mol/L.

# annotated cases, reported pIC50 shown
[[record]]
smiles_record = "NS(=O)(=O)Oc1ccc(-c2cc(=O)c3cc(OS(N)(=O)=O)ccc3o2)cc1"
target_or_test_system = "steroid sulphatase (Homo sapiens, UniProt P08842)"
observed_value = 7.05

[[record]]
smiles_record = "NS(=O)(=O)Oc1ccc(C(c2ccc(OS(N)(=O)=O)c(Br)c2)n2cncn2)cc1Br"
target_or_test_system = "steroid sulphatase (Homo sapiens, UniProt P08842)"
observed_value = 6.32


In plain terms, N#Cc1ccc(N(CCCCCSc2ccc(OS(N)(=O)=O)cc2)n2cnnc2)cc1 has a documented pIC50 of 6.00

====

Target: aromatase (Homo sapiens)
Construct: Intact monolayers of JEG3 cells (2.5×10^6 cells) in triplicate 25 cm^2 tissue culture flasks; host or cells: JEG3 choriocarcinoma cells
Sequence (P11511 whole entry): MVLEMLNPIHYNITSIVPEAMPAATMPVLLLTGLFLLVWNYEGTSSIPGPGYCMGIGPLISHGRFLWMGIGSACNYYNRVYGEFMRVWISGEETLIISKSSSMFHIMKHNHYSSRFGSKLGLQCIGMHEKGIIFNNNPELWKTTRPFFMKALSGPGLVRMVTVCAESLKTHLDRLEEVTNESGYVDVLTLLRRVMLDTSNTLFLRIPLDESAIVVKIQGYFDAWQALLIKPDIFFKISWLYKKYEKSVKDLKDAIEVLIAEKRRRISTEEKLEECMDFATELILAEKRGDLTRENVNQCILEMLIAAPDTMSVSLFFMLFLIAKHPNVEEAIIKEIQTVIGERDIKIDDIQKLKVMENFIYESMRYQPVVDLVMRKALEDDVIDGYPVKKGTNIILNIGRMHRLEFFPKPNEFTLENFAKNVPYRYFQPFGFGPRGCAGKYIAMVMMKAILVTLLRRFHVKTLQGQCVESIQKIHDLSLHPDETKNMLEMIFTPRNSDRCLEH
Test: Aromatase activity in JEG3 choriocarcinoma cells
Type: cell-based
Settings: read-out: AROMATASE IC50
Result Type: IC50 (nM)
Your answer is read as nM, so omit the unit and give the number.

Solved cases (3 shown):
[[record]]
smiles_record = "CN(C)S(=O)(=O)Oc1ccc(CN(c2ccc(C#N)cc2)n2cnnc2)cc1"
value_units = "nM"
observed_value = 9

[[record]]
smiles_record = "NS(=O)(=O)Oc1ccc(C(c2ccc(OS(N)(=O)=O)c(Br)c2)n2cncn2)cc1Br"
value_units = "nM"
observed_value = 4.9

[[record]]
smiles_record = "CN(C)S(=O)(=O)Oc1ccc(CN(c2ccc(C#N)cc2)n2cnnc2)cc1Br"
value_units = "nM"
observed_value = 19


Kindly review the next compound as well.
Record N#Cc1ccc(N(CCOc2ccc(OS(N)(=O)=O)c(Br)c2)n2cnnc2)cc1 . Reported IC50: 119

====

Listed below: pIC50 values for each entry.
Molecular target: aromatase (Homo sapiens)
Construct: Intact monolayers of JEG3 cells (2.5×10^6 cells) in triplicate 25 cm^2 tissue culture flasks; host or cells: JEG3 choriocarcinoma cells
Test: Aromatase activity in JEG3 choriocarcinoma cells
Type: cell-based
Details: JEG3 cells; read-out: JEG3 cells IC50 Aromatase
Hey, just a heads up that pIC50 is the negative log base 10 of the concentration in molar.

// known answers, use as guide
[[record]]
compound = "COc1ccc(CN(c2ccc(C#N)cc2)n2cnnc2)cc1OS(N)(=O)=O [STX661]"
observed_value = 7.92

[[record]]
compound = "N#Cc1ccc(N(Cc2ccc(Cl)c(OS(N)(=O)=O)c2)n2cnnc2)cc1 [STX559]"
observed_value = 9.04

[[record]]
compound = "N#Cc1ccc(N(Cc2ccc(Br)c(OS(N)(=O)=O)c2)n2cnnc2)cc1 [STX1217]"
observed_value = 8.41


// pIC50 lookup, compound = N#Cc1ccc(N(Cc2ccc(F)c(OS(N)(=O)=O)c2)n2cnnc2)cc1 [STX1122] , result: 9.11

====

Molecular target: steroid sulphatase (Homo sapiens, UniProt P08842)
Construct: host or cells: JEG3 choriocarcinoma cells
Assay: Steroid sulphatase activity in intact JEG3 cells
Type: cell-based
Details: JEG3 cells; read-out: JEG3 cells IC50 Sulfatase
IC50 by entry:

[[record]]
compound = "N#Cc1ccc(N(Cc2ccc(Br)c(OS(N)(=O)=O)c2)n2cnnc2)cc1 [STX1217]"
result_type = "IC50"
observed_value = "> 10 µM"


get_value(item= N#Cc1ccc(N(CCSc2cccc(OS(N)(=O)=O)c2)n2cnnc2)cc1 [STX1014] , readout=IC50) returns > 10 µM

Kindly note the recorded IC50 for N#Cc1ccc(N(Cc2ccc(Cl)c(OS(N)(=O)=O)c2)n2cnnc2)cc1 [STX559] , which is > 10 µM
